system.under.test: Focal adhesion kinase 1 (Homo sapiens)
experiment.description: small-molecule microarray binders of FAK, primary screen, biochemical, 635/667 nm fluorescence, BSA, DTT (AID 1130);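 further: composite of spot emission at 667 nm and signal to noise over triplicate slides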
experimental.context: PTK2 binding, 635 nm fluorescence, higher = more signal
Rule: composite z-score under 0.8 gives F, otherwise T.

stdin: Entry C=CCOC(=O)[C@H]1[C@@H]2C(=O)O[C@@H](c3ccccc3)[C@@H](c3ccccc3)N2[C@@H](c2ccc(OCCOC(=O)[C@H]3C[C@H]4C(=O)N[C@@H](Cc5ccccc5)C(=O)N4[C@H]3c3ccc(O)cc3)cc2)[C@]12C(=O)Nc1ccc(I)cc12 : is its composite z-score no less than 0.8?
stdout: F

stdin: Decide: is the reported value of composite z-score for O=C(CS)NCCCCCCNC(=O)[C@H]1C[C@H]2C(=O)N[C@@H](Cc3ccccc3)C(=O)N2[C@H]1c1cccc(OCCO)c1 equal to or greater than 0.8?
stdout: F

stdin: composite z-score >= 0.8 for C=C(COC)/C(=C/C[C@@H](OC(=O)c1ccncc1)c1ccc(OCCO)cc1)c1cnc2ccccc2c1 ?
stdout: F

stdin: In plain terms: is recorded composite z-score at least 0.8 for COC(=O)[C@@]1(Cc2ccc(OC)cc2)[C@H]2c3cc(C(=O)N(C)C)n(CCc4c[nH]c5ccc(O)cc45)c3C[C@H]2CN1C(=O)c1ccccc1 ?
stdout: T

stdin: Does O=C1C[C@@](C(=O)NCC(F)(F)F)(c2ccc([N+](=O)[O-])cc2)[C@@H](c2ccc(CO)cc2)N1C1CCCCC1 have a reported composite z-score of at least 0.8?
stdout: T

* * *

experiment.description: E. coli growth modulation, two-sided OD650, primary screen, E. coli filamentation project, strain DRC41, 24 h (AID 1093);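 further: MC1000 strain lacking acrAB efflux and sulA so SOS filamentation is blocked; test concentration not given here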
experimental.context: OD650, 24 h, higher = more signal, called active from +8 up or from −8 down
parameter.measured: z-score
Number only, please.

stdin: Which z-score is listed for C=C(C(=O)CC[C@H](OC(=O)c1cccnc1)c1cccc(OCCO)c1)C(C)C ?
stdout: 0.483

stdin: Query: z-score; subject: O=C1C2C=CC(C(O)c3cc(C(F)(F)F)cc(C(F)(F)F)c3)N(Nc3ccc([N+](=O)[O-])cc3)C2C(=O)N1c1ccccc1 (configuration not stated)
stdout: -1.57

stdin: # lookup: z-score of CO[C@H]1O[C@H](CO)[C@@H](OC(=O)c2ccc(Br)cc2)[C@@H]2OC(=O)[C@@H](Cc3ccc4ccccc4c3)C/C=C/C[C@H](Cc3ccc4ccccc4c3)C(=O)O[C@@H]12
stdout: 0.0001

stdin: // lookup z-score for CC(C)C(O)C1C=CC2C(=O)N(C)C(=O)C2N1Nc1ccccc1 (configuration not stated)
stdout: -0.381

stdin: # query: z-score of entry C=CCNC(=O)[C@@H]1[C@H]2C(=O)O[C@H](c3ccccc3)[C@H](c3ccccc3)N2[C@H](c2ccccc2OCCO)[C@@]12C(=O)N(C(=O)OCCOC)c1ccc(C#CC3=CCCCC3)cc12
stdout: 0.906

stdin: Need z-score of CC(C)(C)OC(=O)CC[C@]1(C(=O)N2CCOCC2)N=C(c2ccc(OCCCO)cc2)O[C@H]1c1ccccc1 , thanks.
stdout: 0.961

stdin: Bench note: what z-score did CC(C)(C)N1CC=CC23O[C@@H]4C=CCOC(=O)[C@@H]4[C@H]2C(=O)N(CCCO)[C@@H]3C1=O (some centres not stated) show?
stdout: 1.27
